assay: Volume of distribution at steady state in Beagle dog at 0.052 mg/kg, iv by LC-MS/MS; format: ADME, organism-based, Canis lupus familiaris; set-up: dose 0.052 mg/kg, route intravenous; conditions: in vivo, read-out: Vdss
property-name: Vd (L/kg)
Report as a plain number; the unit L/kg is understood.

# return recorded Vd for input `CC(=O)O.O=C1CNC(=O)N1c1cccc(CCCCOCCCCCCNC[C@H](O)c2ccc(O)c(CO)c2)c1` 0.8

* * *

target: Beta-2 adrenergic receptor (Homo sapiens, UniProt P07550); test: Agonist activity at human adrenergic beta2 receptor expressed in CHO cells assessed as cAMP accumulation
Sequence (P07550 whole entry): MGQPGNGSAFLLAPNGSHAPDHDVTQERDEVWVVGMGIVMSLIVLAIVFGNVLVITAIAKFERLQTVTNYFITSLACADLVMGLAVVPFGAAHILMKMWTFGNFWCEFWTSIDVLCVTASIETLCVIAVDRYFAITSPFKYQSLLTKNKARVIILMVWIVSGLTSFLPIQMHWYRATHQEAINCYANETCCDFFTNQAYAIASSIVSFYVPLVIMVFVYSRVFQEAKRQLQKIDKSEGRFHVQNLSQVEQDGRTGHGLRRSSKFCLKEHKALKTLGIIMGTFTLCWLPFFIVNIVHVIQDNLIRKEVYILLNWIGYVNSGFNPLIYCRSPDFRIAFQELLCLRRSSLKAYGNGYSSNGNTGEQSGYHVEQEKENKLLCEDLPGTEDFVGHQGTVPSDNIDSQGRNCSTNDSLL
I'd be grateful if you could share measured EC50 for these entries.
Report as a plain number; the unit nM is understood.

# return recorded EC50 for input `CC(=O)O.O=C1CNC(=O)N1c1cccc(CCCCOCCCCCCNC[C@H](O)c2ccc(O)c(CO)c2)c1` 0.631

# return recorded EC50 for input `O=C(O)CNC(=O)Nc1cccc(CCCCOCCCCCCNC[C@H](O)c2ccc(O)c(CO)c2)c1` 1

# return recorded EC50 for input `O=C1NC(=O)N(Cc2cccc(CCCCOCCCCCCNC[C@H](O)c3ccc(O)c(CO)c3)c2)C1=O` 0.794

# return recorded EC50 for input `CC(=O)O.NC(=O)CN1C(=O)CN(c2cccc(CCCCOCCCCCCNC[C@H](O)c3ccc(O)c(CO)c3)c2)C1=O` 0.251

* * *

molecular target: Beta-1 adrenergic receptor (Homo sapiens, UniProt P08588); experiment: Agonist activity at human adrenergic beta1 receptor expressed in CHO cells assessed as cAMP accumulation
Sequence (P08588 whole entry): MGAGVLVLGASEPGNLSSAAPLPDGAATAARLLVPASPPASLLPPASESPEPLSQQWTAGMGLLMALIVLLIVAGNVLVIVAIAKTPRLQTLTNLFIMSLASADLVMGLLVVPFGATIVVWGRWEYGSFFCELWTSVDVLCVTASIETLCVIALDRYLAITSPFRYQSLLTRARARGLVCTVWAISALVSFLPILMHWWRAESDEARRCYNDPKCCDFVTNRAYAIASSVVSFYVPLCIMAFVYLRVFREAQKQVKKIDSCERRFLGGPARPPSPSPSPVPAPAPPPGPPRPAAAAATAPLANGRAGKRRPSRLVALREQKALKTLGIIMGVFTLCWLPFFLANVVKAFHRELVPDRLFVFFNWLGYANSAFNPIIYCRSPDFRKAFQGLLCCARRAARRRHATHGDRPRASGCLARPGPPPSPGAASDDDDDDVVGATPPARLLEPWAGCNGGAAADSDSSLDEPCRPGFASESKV
property-name: EC50 (nM)
Report as a plain number; the unit nM is understood.

# return recorded EC50 for input `O=c1cc[nH]c(=O)n1-c1cccc(CCCCOCCCCCCNC[C@H](O)c2ccc(O)c(CO)c2)c1` 251

# return recorded EC50 for input `O=C1NC(=O)N(Cc2cccc(CCCCOCCCCCCNC[C@H](O)c3ccc(O)c(CO)c3)c2)C1=O` 50.1

# return recorded EC50 for input `O=c1ccn(-c2cccc(CCCCOCCCCCCNC[C@H](O)c3ccc(O)c(CO)c3)c2)c(=O)[nH]1` 50.1

# return recorded EC50 for input `CC(=O)O.CC1(C)NC(=O)N(c2cccc(CCCCOCCCCCCNC[C@H](O)c3ccc(O)c(CO)c3)c2)C1=O` 200

* * *

assay: Cmax in Beagle dog at 0.25 mg/kg, po by LC-MS/MS; assay type: ADME, organism-based, Canis lupus familiaris; parameters: dose 0.25 mg/kg, route oral; conditions: in vivo
property-name: Cmax
Report field: quantity (unit follows the number).

# return recorded Cmax for input `CC(=O)O.O=C1CNC(=O)N1c1cccc(CCCCOCCCCCCNC[C@H](O)c2ccc(O)c(CO)c2)c1` 12 ng/mL

* * *

target: Beta-3 adrenergic receptor (Homo sapiens, UniProt P13945); experiment: Agonist activity at human adrenergic beta3 receptor expressed in CHO cells assessed as cAMP accumulation
Sequence (P13945 whole entry): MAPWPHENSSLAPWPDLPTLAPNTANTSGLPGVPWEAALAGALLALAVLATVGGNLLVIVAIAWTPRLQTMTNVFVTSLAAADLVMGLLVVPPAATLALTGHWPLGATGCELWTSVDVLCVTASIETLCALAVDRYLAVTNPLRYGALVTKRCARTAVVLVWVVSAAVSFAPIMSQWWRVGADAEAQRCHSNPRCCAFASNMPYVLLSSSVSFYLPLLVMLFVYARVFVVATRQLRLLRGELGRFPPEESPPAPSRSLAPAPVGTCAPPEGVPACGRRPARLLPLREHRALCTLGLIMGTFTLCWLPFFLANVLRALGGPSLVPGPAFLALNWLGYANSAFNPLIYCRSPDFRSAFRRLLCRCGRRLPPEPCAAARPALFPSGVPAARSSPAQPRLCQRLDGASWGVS
I'd be grateful if you could share measured pEC50 for these entries.
Conceptually, pEC50 converts a concentration in mol/L into minus its log10.

# return recorded pEC50 for input `CC(=O)O.O=C1CNC(=O)N1c1ccc(CCCCOCCCCCCNC[C@H](O)c2ccc(O)c(CO)c2)cc1` 7.50

# return recorded pEC50 for input `CC(=O)O.O=C1CNC(=O)N1Cc1cccc(CCCCOCCCCCCNC[C@H](O)c2ccc(O)c(CO)c2)c1` 7.40

# return recorded pEC50 for input `O=C(O)CNC(=O)Nc1cccc(CCCCOCCCCCCNC[C@H](O)c2ccc(O)c(CO)c2)c1` 7.00

# return recorded pEC50 for input `CC(=O)O.O=C1CN(c2cccc(CCCCOCCCCCCNC[C@H](O)c3ccc(O)c(CO)c3)c2)C(=O)N1` 6.50
